meta.source: ChEMBL document CHEMBL4609985

MEASUREMENT DESCRIPTION: Selectivity index, ratio of CC50 for MDCK cells to EC50 for antiviral activity against Influenza H3N2 A/HK/7/87 infected in MDCK cells after 4 days by MTS assay
Format: toxicity, cell-based
SETUP CONDITIONS: dog, read-out: Ratio CC50/EC50
MEASURED ATTRIBUTE: selectivity ratio at 96 h
Please give the numeric answer without any surrounding text.

Known results for compounds:
- COMPOUND: "Cc1c(C(=O)NN2C(=O)C(C)SC23CCCCC3)[nH]c2ccc(Cl)cc12 (stereo not given)"
  MEASURED ATTRIBUTE: "selectivity ratio at 96 h"
  RESULT NUMBER: 92
- COMPOUND: "Cc1c(C(=O)NN2C(=O)C(C)SC23CCCC(C)C3)[nH]c2ccc(Cl)cc12 (stereo not given)"
  MEASURED ATTRIBUTE: "selectivity ratio at 96 h"
  RESULT NUMBER: 1440

Param item = CCC1CCC2(CC1)SC(C)C(=O)N2NC(=O)c1[nH]c2ccc(Cl)cc2c1C (stereo not given) ; retrieve measured selectivity ratio at 96 h.
1950

Param item = Cc1c(C(=O)NN2C(=O)C(C)SC23CCC(C)CC3)[nH]c2ccc(Cl)cc12 (stereo not given) ; retrieve measured selectivity ratio at 96 h.
62
